# hepatocyte CLint at 1 μM per record follows
test: Human hepatocyte stability; format: in vitro ADME; conditions: human, pooled human hepatocytes, human hepatocytes, 1 μM, 60 minute incubation; read-out: Human Clint (uL/min/million cells)
Only the number, expressed in µL/min/1e6 cells, is required.

> print(dat)
                                   molecule  recordedresult
1  C[C@]1(O)CC[C@H](CS(=O)(=O)c2ccc(-c3ccc(C#N)cc3F)cc2C(F)(F)F)CC1            10.8
2  C[C@]1(O)CC[C@@H](CS(=O)(=O)c2ccc(-c3ccc(Cl)cc3Cl)cc2)CC1             7.8
3  C[C@]1(O)CC[C@@H](CS(=O)(=O)c2ccc(-c3ncc(F)cc3F)cc2C(F)(F)F)CC1            12.1
4  C[C@]1(O)CC[C@H](CS(=O)(=O)c2ccc(-c3ncc(F)cc3F)cc2C(F)(F)F)CC1            52.9
5  C[C@]1(O)CC[C@H](NS(=O)(=O)c2ccc(-c3ccc(F)cc3F)cc2)CC1 [ABD900, reference compound]             6.3

Now for another entry.
`C[C@]1(O)CC[C@H](CS(=O)(=O)c2ccc(-c3ccc(F)cc3F)cc2C(F)(F)F)CC1` yielded hepatocyte CLint at 1 μM of 9.8

* * *

experiment: Human hepatocyte stability; type: in vitro ADME; settings: human, pooled human hepatocytes, human hepatocytes, 1 μM, 60 minute incubation; read-out: Human Clint (uL/min/million cells)
Outcome: y for hepatocyte CLint at 1 μM of at least 8 µL/min/1e6 cells; n for anything lower.

Observe how each entry below is paired with its result.
> print(dat)
                                   compound  classification
1  C[C@]1(O)CC[C@H](CS(=O)(=O)c2ccc(-c3ccc(C#N)cc3Cl)cc2)CC1               n
2  C[C@]1(O)CC[C@H](CS(=O)(=O)c2ccc(-c3ccc(Cl)cc3C#N)cc2)CC1               n
3  C[C@]1(O)CC[C@H](CS(=O)(=O)c2ccc(-c3ncc(F)cc3F)c(F)c2)CC1               n
4  C[C@]1(O)CC[C@H](CS(=O)(=O)c2ccc(-c3ccc(Cl)cc3Cl)cc2)CC1               y

Evaluate `C[C@]1(O)CC[C@@H](CS(=O)(=O)c2ccc(-c3ccc(F)cc3F)cc2C(F)(F)F)CC1` : hepatocyte CLint at 1 μM at minimum 8 µL/min/1e6 cells?
y

Evaluate `C[C@]1(O)CC[C@@H](CS(=O)(=O)c2ccc(-c3ccc(Cl)cc3C#N)cc2)CC1` : hepatocyte CLint at 1 μM at minimum 8 µL/min/1e6 cells?
y

Evaluate `C[C@]1(O)CC[C@@H](CS(=O)(=O)c2ccc(-c3ccc(F)cc3F)cc2)CC1` : hepatocyte CLint at 1 μM at minimum 8 µL/min/1e6 cells?
y

* * *

biological target: CYP2C19 (Homo sapiens (Human), UniProt P33261); experiment: Human Cytochrome P450 Inhibition Assay (Bactosomes); conditions: recombinant Bactosomes, 10 minutes, 37° C.
Sequence (P33261 whole entry): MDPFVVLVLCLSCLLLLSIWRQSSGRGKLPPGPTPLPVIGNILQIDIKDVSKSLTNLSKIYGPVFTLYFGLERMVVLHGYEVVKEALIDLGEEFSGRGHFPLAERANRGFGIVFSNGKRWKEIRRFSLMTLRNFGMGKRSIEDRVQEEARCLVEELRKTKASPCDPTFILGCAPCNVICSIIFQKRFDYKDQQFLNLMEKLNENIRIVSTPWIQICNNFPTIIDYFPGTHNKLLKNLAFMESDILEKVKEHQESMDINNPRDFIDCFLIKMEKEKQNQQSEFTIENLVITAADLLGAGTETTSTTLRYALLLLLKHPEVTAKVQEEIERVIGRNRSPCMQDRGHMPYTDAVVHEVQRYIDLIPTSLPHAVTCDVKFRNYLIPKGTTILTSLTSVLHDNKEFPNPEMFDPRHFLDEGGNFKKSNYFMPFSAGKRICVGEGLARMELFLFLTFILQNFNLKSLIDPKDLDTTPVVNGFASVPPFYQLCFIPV
measureName: IC50 (µM)
Only the number, expressed in µM, is required.

> print(dat)
                                   compound  measurename  uom  recordedresult
1  C[C@]1(O)CC[C@@H](NS(=O)(=O)c2ccc(-c3ccc(F)cc3F)cc2)CC1 [ABD899, reference compound]         IC50   µM             7.3

Now for another entry.
`C[C@]1(O)CC[C@@H](CS(=O)(=O)c2ccc(-c3ccc(C#N)cc3Cl)cc2)CC1` yielded IC50 of 36.6

* * *

Test: Rat hepatocyte stability
Type: in vitro ADME
Details: rat, pooled rat hepatocytes, 60 minute incubation, read-out: Rat t1/2
Experimental: Metabolic stability of test compounds was measured by determination of the rate of disappearance of the compound when incubated in the presence of rat or human hepatocytes, a primary source of the most important enzymes (cytochrome P450s) involved in drug metabolism. […] Rat or human hepatocytes were obtained from a commercial source and viability was assessed using a trypan blue solution prior to use. […] The half-life (t1/2) was calculated using the following formula: […]
measureName: half-life at 1 μM (min)
Only the number, expressed in min, is required.

Answered cases to consult:
> print(dat)
                                   compound  recordedresult
1  C[C@]1(O)CC[C@@H](CS(=O)(=O)c2ccc(-c3ccc(C#N)cc3F)cc2C(F)(F)F)CC1              13
2  C[C@]1(O)CC[C@@H](CS(=O)(=O)c2ccc(-c3ccc(C#N)cc3F)cc2)CC1             106
3  C[C@]1(O)CC[C@H](NS(=O)(=O)c2ccc(-c3ccc(Cl)cc3C#N)cc2)CC1 [HMC-C-01-A, reference compound]               7

`C[C@]1(O)CC[C@@H](CS(=O)(=O)c2ccc(-c3ccc(F)cc3F)cc2)CC1` yielded half-life at 1 μM of 47.1

C[C@]1(O)CC[C@H](NS(=O)(=O)c2ccc(-c3ccc(F)cc3F)cc2)CC1 [ABD900, reference compound] yielded half-life at 1 μM of 17.9

* * *

assay: Human hepatocyte stability; type: in vitro ADME; conditions: human, pooled human hepatocytes, human hepatocytes, 1 μM, 60 minute incubation; read-out: Human t1/2
measureName: half-life at 1 μM (min)
Only the number, expressed in min, is required.

> print(dat)
                                   compound  recordedresult
1  C[C@]1(O)CC[C@H](CS(=O)(=O)c2ccc(-c3ccc(Cl)cc3C#N)cc2)CC1 [CHMSA-10-B]             195
2  C[C@]1(O)CC[C@@H](CS(=O)(=O)c2ccc(-c3ccc(F)cc3F)cc2C(F)(F)F)CC1 [CHMSA-08-A]            73.2
3  C[C@]1(O)CC[C@H](CS(=O)(=O)c2ccc(-c3ccc(C#N)cc3F)cc2)CC1 [CHMSA-01-B]             297

C[C@]1(O)CC[C@@H](CS(=O)(=O)c2ccc(-c3ncc(F)cc3F)cc2C(F)(F)F)CC1 [CHMSA-09-A] yielded half-life at 1 μM of 112

C[C@]1(O)CC[C@@H](CS(=O)(=O)c2ccc(-c3ccc(C#N)cc3F)cc2)CC1 [CHMSA-01-A] yielded half-life at 1 μM of 355

C[C@]1(O)CC[C@H](NS(=O)(=O)c2ccc(-c3ccc(Cl)cc3C#N)cc2)CC1 [HMC-C-01-A, reference compound] yielded half-life at 1 μM of 154

C[C@]1(O)CC[C@@H](CS(=O)(=O)c2ccc(-c3ccc(Cl)cc3C#N)cc2)CC1 [CHMSA-10-A] yielded half-life at 1 μM of 37

* * *

biological target: CYP3A4 (Homo sapiens (Human)); test: Human Cytochrome P450 Inhibition Assay (Bactosomes); conditions: recombinant Bactosomes, 10 minutes, 37° C.
Sequence (P08684 whole entry): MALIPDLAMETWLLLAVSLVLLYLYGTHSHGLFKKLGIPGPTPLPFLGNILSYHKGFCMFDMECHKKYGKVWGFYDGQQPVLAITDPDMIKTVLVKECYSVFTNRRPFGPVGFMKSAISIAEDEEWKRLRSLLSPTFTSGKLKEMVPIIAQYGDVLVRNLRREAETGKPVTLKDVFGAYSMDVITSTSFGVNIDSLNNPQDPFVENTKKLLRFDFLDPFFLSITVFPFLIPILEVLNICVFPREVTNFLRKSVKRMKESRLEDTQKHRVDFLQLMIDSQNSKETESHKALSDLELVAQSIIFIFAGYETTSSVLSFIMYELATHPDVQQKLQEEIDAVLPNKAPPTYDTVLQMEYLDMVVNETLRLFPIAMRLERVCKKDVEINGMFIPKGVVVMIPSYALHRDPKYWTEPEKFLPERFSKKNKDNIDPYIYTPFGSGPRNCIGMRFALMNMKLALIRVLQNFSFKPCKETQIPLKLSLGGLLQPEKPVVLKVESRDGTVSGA
measureName: IC50 (µM)
Only the number, expressed in µM, is required.

Answered cases to consult:
> print(dat)
                                   compound  recordedresult
1  CC1(O)CCC(NS(=O)(=O)c2ccc(-c3cc(F)c(F)cc3F)cc2)CC1 (stereo not drawn) [HMC-C-10-B, reference compound]             9.2
2  C[C@]1(O)CC[C@@H](CS(=O)(=O)c2ccc(-c3ccc(C#N)cc3Cl)cc2)CC1            26.3
3  CC1(O)CCC(NS(=O)(=O)c2ccc(-c3ccc(Cl)cc3C#N)c(Cl)c2)CC1 (stereo not drawn) [HMC-C-11-A, reference compound]              12

C[C@]1(O)CC[C@@H](NS(=O)(=O)c2ccc(-c3ccc(F)cc3F)cc2)CC1 [ABD899, reference compound] yielded IC50 of 21.6

CC1(O)CCC(NS(=O)(=O)c2ccc(-c3ccc(C#N)cc3Cl)cc2)CC1 (stereo not drawn) [HMC-C-09-A, reference compound] yielded IC50 of 33

* * *

# log10 of half-life at 1 μM per record follows
assay: Human hepatocyte stability; type: in vitro ADME; settings: human, pooled human hepatocytes, human hepatocytes, 1 μM, 60 minute incubation; read-out: Human t1/2
Please interpret these as log10 of half-life at 1 μM where half-life at 1 μM is in min.

Answered cases to consult:
> print(dat)
                                   molecule                 measurename  recordedresult
1  C[C@]1(O)CC[C@@H](CS(=O)(=O)c2ccc(-c3ccc(F)cc3F)cc2)CC1 [CHMSA-04-A]  log10 of half-life at 1 μM            1.44
2  C[C@]1(O)CC[C@@H](CS(=O)(=O)c2ccc(-c3ccc(C#N)cc3Cl)cc2)CC1 [CHMSA-05-A]  log10 of half-life at 1 μM            2.60
3  C[C@]1(O)CC[C@H](CS(=O)(=O)c2ccc(-c3ncc(F)cc3F)cc2C(F)(F)F)CC1 [CHMSA-09-B]  log10 of half-life at 1 μM            1.40
4  C[C@]1(O)CC[C@H](CS(=O)(=O)c2ccc(-c3ccc(Cl)cc3Cl)cc2)CC1 [CHMSA-11-B]  log10 of half-life at 1 μM            2.00

Now for another entry.
C[C@]1(O)CC[C@H](NS(=O)(=O)c2ccc(-c3ccc(F)cc3F)cc2)CC1 [ABD900, reference compound] yielded log10 of half-life at 1 μM of 2.34

Origin of the recorded values: patent US11834414B2
